# tested-target: FXR (Homo sapiens (Human), UniProt Q96RI1)
# Sequence (Q96RI1 262-486): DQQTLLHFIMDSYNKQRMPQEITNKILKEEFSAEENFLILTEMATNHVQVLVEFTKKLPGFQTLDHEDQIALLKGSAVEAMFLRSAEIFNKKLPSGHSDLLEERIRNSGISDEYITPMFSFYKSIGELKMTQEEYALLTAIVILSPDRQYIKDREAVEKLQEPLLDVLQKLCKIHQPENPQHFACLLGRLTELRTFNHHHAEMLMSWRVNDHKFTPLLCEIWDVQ
# assay-details: transient human FXR/Gal4-luciferase reporter assay
# Assay type: cell-based
# cond: Gal4-hFXR fusion construct, HEK293 reporter cells; response relative to 8 μM GW-4064
quantity-measured: EC50 (nM)
Give your result in nM as a bare value.

Observe how each entry below is paired with its result.
compound: N#Cc1cc2sccc2nc1-c1cccc(N(CC23CCC(c4nc(C5CC5)no4)(CC2)CC3)C(=O)C23CC(F)(C2)C3)c1 [Example 316]
quantitative-result: 138

compound: CC(C)c1noc(C23CCC(CN(C(=O)C45CC(F)(C4)C5)c4cccc(-c5ccc6c(c5)OC(F)(F)O6)c4)(CC2)CC3)n1 [Example 386]
quantitative-result: 274

compound: CC(C)(C)c1nc(C23CCC(CN(C(=O)C45CC(F)(C4)C5)c4cncc(-c5ncc(OC(F)F)cn5)c4)(CC2)CC3)no1 [Example 485]
quantitative-result: 41

EC50 recorded for this compound, Cc1nc2ccc(-c3cccc(N(CC45CCC(c6ccc(C(=O)N(C)C)cc6)(CC4)OC5)C(=O)C45CC(F)(C4)C5)c3)cc2s1 [Example 569] , is 2220

Measured EC50, O=C(N(CC12CCC(c3nc(C4CC4)no3)(CC1)CC2)c1cccc(-c2ccc(NS(=O)(=O)C(F)(F)F)cc2)c1)C12CC(F)(C1)C2 [Example 267] : 46

The compound listed as COc1cc(-c2cccc(N(CC34CCC(c5nc(C6CC6)no5)(CC3)OC4)C(=O)C34CC(F)(C3)C4)c2)ccn1 [Example 339] shows EC50 equal to 378
